Data provenance is PubChem BioAssay (NCI).

Test system: KM12 colon
Assay: NCI tumour cell line growth inhibition, 48 h; in the data active = GI50 below about 0.43 µM; inactive = the rest
The categories you may choose from are active, inactive

{"smiles entry": "C[C@@H]1Cc2c([nH]c3ccccc23)[C@@H](c2c(F)cc(/C=C/C(=O)O)cc2F)N1CC(C)(C)F", "class name": "inactive"}
{"smiles entry": "NS(=O)(=O)c1ccc(-n2nc(-c3ccc(Br)cc3)ccc2=O)cc1", "class name": "inactive"}
{"smiles entry": "CNC(=O)c1cc(Oc2ccc3c(c2)sc2nc(-c4ccc(N)cc4)cn23)ccn1", "class name": "active"}
{"smiles entry": "COc1ccc(CNC(=O)COc2ccc(/C=N/Nc3nc4ccccc4s3)cc2)cc1", "class name": "inactive"}
{"smiles entry": "CN1CCN(Cc2ccc(NC(=O)c3cncc(C#Cc4cnc(N)c5ccccc45)c3)cc2C(F)(F)F)CC1", "class name": "active"}
{"smiles entry": "Cc1c(Cl)cccc1Nc1ncccc1C(=O)O", "class name": "inactive"}

Assay outcome for O=[n+]1c(CBr)c(CBr)n([O-])c2ccccc21 : what was it? inactive

Hello, I am checking results. What call was entered for N#Cc1c(O)c2c(c(O)c1C#N)C(=O)c1ccccc1C2=O ? inactive

Assay outcome for O=C1c2ccccc2-c2c1c1cc3c(cc1c(=O)n2CCCCl)OCO3 : what was it? inactive

What did the test return for COc1cccc(-c2nn(-c3ccccc3)cc2-c2ccnc(NCCCNS(=O)(=O)c3cccc(F)c3)c2)c1 ? inactive

====

Test system: IGROV1 ovarian
Test: NCI tumour cell line growth inhibition, 48 h
TGI: recorded values

Any idea what its TGI is? The molecule is O=C(O)c1ccc(NS(=O)(=O)Cc2ccccc2)cc1 > 100 µM

Suppose we examine the molecule CC(C)=CC1C(C(=O)O)C1(C)C (configuration not stated) ; what TGI value has been reported? > 750 µM

====

The following molecules are listed with their measured GI50 values.
Test system: EKVX NSCLC
Assay: NCI tumour cell line growth inhibition, 48 h

See these solved cases before continuing.
{"smiles entry": "C[C@@H]1Cc2c([nH]c3ccccc23)[C@@H](c2c(F)cc(/C=C/C(=O)O)cc2F)N1CC(C)(C)F", "measured on": "EKVX NSCLC", "endpoint": "GI50", "measurement": "12.7 µM"}
{"smiles entry": "Clc1ccc(Cc2nc3cc4ccccc4cc3[nH]2)cc1", "measured on": "EKVX NSCLC", "endpoint": "GI50", "measurement": "26.9 µM"}
{"smiles entry": "N#Cc1nc(-c2ccc(F)cc2)oc1S(=O)(=O)N1CCOCC1", "measured on": "EKVX NSCLC", "endpoint": "GI50", "measurement": "13.8 µM"}

Test system EKVX NSCLC; read-out GI50; what value for ClCc1ccccc1CSc1ncnc2nc[nH]c12 ? > 60 µM

// map O=C1CSC(N2CCN(c3cccc(Cl)c3)CC2)=N1 to recorded GI50 (system: EKVX NSCLC) > 100 µM

Fill in the recorded GI50 for this molecule, with EKVX NSCLC as test system: CC(=O)c1ccc(N(/C=C/C(=O)C(F)(F)F)CC(=O)c2ccc(Cl)c(Cl)c2)cc1 19.9 µM

Entry S=C1NCCN1C1=Nc2ccccc2CO1 , system EKVX NSCLC: what GI50 was measured? 93.6 µM

Field: GI50 (EKVX NSCLC). Entry: COc1ccc(-n2cc(-c3ccc(OC)c(OC)c3)[nH]c2=S)cc1Cl 41.5 µM

Provide the documented GI50 with EKVX NSCLC as the system for CN(C)CCNc1nc2ccccc2c2[nH]c3ccccc3c12 1.7 µM

====

Each entry below carries its recorded TGI.
Test system: SW-620 colon
Assay: NCI tumour cell line growth inhibition, 48 h

Completed entries (count: 3):
{"molecule": "O=C1C(C=NCCc2c[nH]c3ccccc23)C(C(F)(F)F)=NN1c1nc2ccccc2s1 (stereo not given)", "measured on": "SW-620 colon", "TGI": "> 100 µM"}
{"molecule": "CCCCCCCCCCCCOC1C(CNCC2OC3OC(C)(C)OC3C2NC(=O)Nc2ccc(C(=O)OCC)cc2)OC2OC(C)(C)OC21 (stereo not given)", "measured on": "SW-620 colon", "TGI": "3.29 µM"}
{"molecule": "CN1CCN(C(=S)N(C)C(=O)c2ccc(Cl)cc2)CC1", "measured on": "SW-620 colon", "TGI": "> 100 µM"}

Find the recorded TGI belonging to O=[N+]([O-])c1ccc(NSc2ccccc2)cc1 and report it. > 100 µM

// TGI lookup, key: COC(=O)c1c(OC)cccc1C(=O)O > 100 µM

====

Test system: DMS 114 small cell lung
Test: NCI tumour cell line growth inhibition, 48 h
The entries below are paired with their reported TGI.
API: value field is a number in µM; no unit string.

Observe how each entry below is paired with its result.
{"compound": "CC1=C[C@@H]2Cc3occc3C(C)(C)[C@@H]2CC1", "TGI, µM": 35.9}
{"compound": "C[Si](C)(C)c1ccc(CC2(Cc3ccc([Si](C)(C)C)cc3)CCNC2)cc1", "TGI, µM": 3.87}
{"compound": "C=CCCCC12CCCc3cccc(c31)NC2=O (centres undefined)", "TGI, µM": 33}
{"compound": "Cc1c(C(=O)/C=C/c2cccc3ccccc23)[n+](=O)c2ccccc2n1[O-]", "TGI, µM": 16.8}
{"compound": "COc1cc([C@@H]2c3cc4c(cc3C[C@H]3COC(=O)[C@@H]32)OCO4)cc(OC)c1OC", "TGI, µM": 0.0167}
{"compound": "O=C1/C(=C/c2ccccc2)CN(C(=O)Oc2ccc(Cl)cc2)C/C1=C\\c1ccccc1", "TGI, µM": 3.68}

Would you kindly look at the next entry?
Report TGI for O=C(O)c1cc(S(=O)(=O)N=NC=C2c3ccccc3N(O)c3ccccc32)ccc1O please. 50.8

====

Catalogue of TGI values
Test system: UO-31 renal
Assay: NCI tumour cell line growth inhibition, 48 h

Consider the following illustrative entries.
{"smiles entry": "O=C(/C=C(\\[O-])c1ccccc1)CCCCCCC(=O)/C=C(\\[O-])c1ccccc1.O=C(/C=C(\\[O-])c1ccccc1)CCCCCCC(=O)/C=C(\\[O-])c1ccccc1.O=C(/C=C(\\[O-])c1ccccc1)CCCCCCC(=O)/C=C(\\[O-])c1ccccc1.[La+3].[La+3]", "measurement": "> 50 µM"}
{"smiles entry": "CSc1c(C(=O)Nc2ccc(C)cc2)c(N)[nH]c(=O)c1C#N", "measurement": "> 100 µM"}
{"smiles entry": "CN1CCN(C(=S)N(C)C(=O)c2ccc(Cl)cc2)CC1", "measurement": "> 100 µM"}
{"smiles entry": "CN(C)S(=O)(=O)Nc1ccccn1", "measurement": "> 100 µM"}
{"smiles entry": "C(=Nc1ccc(-c2nc3ccccc3s2)cc1)c1ccco1", "measurement": "> 100 µM"}

If you can, please state the reported TGI value of CC1=C2[C@@H](CC1)[C@]1(C)O[C@@](C(C)C)(C[C@H]1OC(=O)[C@H](C)O)[C@H]2OC(=O)/C=C/c1ccccc1 . 18.7 µM

// returns reported TGI for input N#Cc1nc(-c2ccc(F)cc2)oc1S(=O)(=O)N1CCOCC1 2.97 µM

Consider the molecule CCN(CCCN(CC)C(=O)N[C@@H](Cc1ccccc1)C(=O)NC)C(=O)N[C@@H](Cc1ccccc1)C(=O)NC and give its measured TGI. > 100 µM

====

Tested on: SF-268 CNS
Assay: NCI tumour cell line growth inhibition, 48 h; in the data active means GI50 below about 0.43 µM; inactive means the rest
Where a SMILES comes first, the peptide text is derived from it. [ ]: non-standard residue; d: D form. The star is where a group is joined. Bn2Val = CC(C)[C@@H](C(=O)*)N(Cc1ccccc1)Cc1ccccc1; NH(3,4-diMeO-benzyl) = COc1ccc(CN*)cc1OC; NMeV = CN[C@H](C(=O)O)C(C)C; dNMeA = CN[C@H](C)C(=O)O
Give your call using only these classes: active, inactive

{"molecule": "CN(C)CCNc1nc2ccccc2c2[nH]c3ccccc3c12", "class name": "active"}

Per the assay record, what outcome was assigned to COc1ccc(CNC(=O)[C@@H](C)N(C)C(=O)[C@@H]2CCCN2C(=O)[C@H](C(C)C)N(C)C(=O)[C@@H](NC(=O)[C@H](C(C)C)N(Cc2ccccc2)Cc2ccccc2)C(C)C)cc1OC (Bn2Val-V[NMeV]P[dNMeA]-{NH(3,4-diMeO-benzyl)}) ? inactive

Any idea what this test logged for O=C(Cc1ccc(/C=C/C(=O)c2ncc[nH]2)cc1)Nc1ccc(Cl)cc1 ? inactive

For this molecule, state the assay outcome: NNC(=O)c1cnn(-c2ccnc3c(C(F)(F)F)cccc23)c1N inactive

Returns: the outcome recorded for CNC(=O)c1cc(Oc2ccc3c(c2)sc2nc(-c4ccc(N)cc4)cn23)ccn1 in this assay. inactive

Dear colleague, could you share the recorded outcome for O=C1c2ccccc2C(=O)c2c1ccc1[nH]c(CCl)nc21 when you have a moment? inactive

Check the results log: what was the call for COc1ccc(CNC(=O)COc2ccc(/C=N/Nc3nc4ccccc4s3)cc2)cc1 ? inactive

Dear colleague, could you share the recorded outcome for O=C(O)CCCc1ccc(N(CCCl)CCCl)cc1 when you have a moment? inactive

Fill in: this test's call for COC(=O)[C@@H](C)C[C@H](Cc1ccccc1)NC(=O)c1nc([C@@H](C[C@H](C(C)C)N(C)C(=O)[C@@H](NC(=O)[C@H]2CCCN2C)C(C)C)OC(C)=O)sc1C is ___ active

Recorded test outcome, item Cc1c(N2C(=O)/C(=C\c3ccccc3O)N=C2c2ccccc2)c(=O)n(-c2ccccc2)n1C inactive

Short answer needed: outcome of this test for O=c1cc(-c2ccc3c(c2)OCCO3)oc2cc(Cl)ccc12 ? inactive

Query: recorded result category for CC[n+]1ccc2c(c1)C(=O)c1nccc3c1c-2nc1ccccc13 in this test active

So what was the verdict on CCOC(=O)c1cc(-c2ccc([N+](=O)[O-])cc2)n(-c2ccc(C(=O)O)c(O)c2)c1C in this test? inactive

Kindly provide the recorded test outcome for the following molecule: O=C1c2ccccc2-c2c1c1cc3c(cc1c(=O)n2CCCCl)OCO3 inactive
